System: NCI-H23 lung
Experiment: NCI-60 one-dose screen, 48 h (100 = growth as untreated, 0 = no growth, -100 = all killed)
Conditions: 10 µM unless noted
This is part of a sample that, as a whole, favours compounds with a hit. Of some 83,000 tested, about 20% had one in any assay.
endpointLabel: growth (%)

INSERT INTO results (smilesnotation, reading) VALUES
  ('CCC(=C(c1ccc(OCCN2CCCCC2)cc1)c1ccc(OCCN2CCCCC2)cc1)c1ccc(Cl)cc1', -81),
  ('O=C(c1ccccc1)c1ccc(C2CCCCC2)cc1', 95),
  ('COc1ccc(\C=N/N=C(N)/C(N)=N\N=C/c2ccc(OC)cc2)cc1', 95.6);
